Attribution: patent US8492374B2

Target: FLT-3 kinase (Homo sapiens)
Construct: human FLT-3 (Arg571-Ser993); GST (N); purchased Cell Signaling Technology HTScan FLT-3 Kinase Assay Kit; host or cells: baculovirus expression system
Sequence (P36888 571-993): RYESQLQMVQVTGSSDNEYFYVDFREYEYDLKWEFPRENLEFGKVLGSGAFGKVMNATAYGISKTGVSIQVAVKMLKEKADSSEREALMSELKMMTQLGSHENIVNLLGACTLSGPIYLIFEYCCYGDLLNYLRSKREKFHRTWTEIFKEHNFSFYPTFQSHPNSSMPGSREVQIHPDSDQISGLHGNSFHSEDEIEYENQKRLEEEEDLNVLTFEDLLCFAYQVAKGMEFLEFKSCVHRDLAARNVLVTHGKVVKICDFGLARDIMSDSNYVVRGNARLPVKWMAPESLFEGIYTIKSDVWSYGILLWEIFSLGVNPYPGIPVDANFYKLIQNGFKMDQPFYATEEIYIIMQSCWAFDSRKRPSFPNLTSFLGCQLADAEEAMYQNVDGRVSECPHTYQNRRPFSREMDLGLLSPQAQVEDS
Assay: FLT-3 kinase DELFIA assay (HTScan FLT-3 Kinase Assay Kit)
Assay type: biochemical
Conditions: 0.1 uM compound, 20 uM ATP
Task for the reader: assign each of the following compounds its reported inhibition at 0.1 µM.
Report only the number, with the unit % understood.

INPUT: GET /values?readout=inhibition at 0.1 µM&system=FLT-3 kinase (Homo sapiens)&item= O=c1[nH]c2cccccc-2c1-c1nc2cc(N3CCOCC3)ccc2[nH]1
OUTPUT: 24.5

INPUT: GET /values?readout=inhibition at 0.1 µM&system=FLT-3 kinase (Homo sapiens)&item= CN1CCN(S(=O)(=O)c2ccc3[nH]c(-c4c5cccccc-5[nH]c4=O)nc3c2)CC1
OUTPUT: 9.5

INPUT: GET /values?readout=inhibition at 0.1 µM&system=FLT-3 kinase (Homo sapiens)&item= O=c1[nH]c2cccccc-2c1-c1nc2cc(N3CCCN(c4cccc(Cl)n4)CC3)ccc2[nH]1
OUTPUT: 10.9

INPUT: GET /values?readout=inhibition at 0.1 µM&system=FLT-3 kinase (Homo sapiens)&item= O=C(Nc1ccccc1)N1CCN(c2ccc3[nH]c(-c4c5cccccc-5[nH]c4=O)nc3c2)CC1
OUTPUT: 45.2

====

target: FLT-3 kinase (Homo sapiens); construct: human FLT-3 (Arg571-Ser993); GST (N); purchased Cell Signaling Technology HTScan FLT-3 Kinase Assay Kit; host or cells: baculovirus expression system; experiment: FLT-3 kinase DELFIA assay (HTScan FLT-3 Kinase Assay Kit); assay type: biochemical; conditions: 0.1 uM compound, 20 uM ATP
Classify by measured inhibition at 0.1 µM: MET if it is equal to or exceeds 20%, NOT MET if it is smaller.

INPUT: API: above_or_equal(metric=inhibition at 0.1 µM, cutoff=20%) for item O=C(Nc1ccc2[nH]c(-c3c4cccccc-4[nH]c3=O)nc2c1)Nc1ccc(Cl)cc1C(F)(F)F
OUTPUT: MET

INPUT: API: above_or_equal(metric=inhibition at 0.1 µM, cutoff=20%) for item O=c1[nH]c2cccccc-2c1-c1nc2cc(N3CCN(c4ccncc4)CC3)ccc2[nH]1
OUTPUT: MET

INPUT: API: above_or_equal(metric=inhibition at 0.1 µM, cutoff=20%) for item CN(C)[C@@H]1CCN(c2ccc3[nH]c(-c4c5cccccc-5[nH]c4=O)nc3c2)C1
OUTPUT: MET

INPUT: API: above_or_equal(metric=inhibition at 0.1 µM, cutoff=20%) for item Cc1ccc(N2CCCN(c3ccc4[nH]c(-c5c6cccccc-6[nH]c5=O)nc4c3)CC2)nn1
OUTPUT: NOT MET

INPUT: API: above_or_equal(metric=inhibition at 0.1 µM, cutoff=20%) for item CS(=O)(=O)N1CCCN(c2ccc3[nH]c(-c4c5cccccc-5[nH]c4=O)nc3c2)CC1
OUTPUT: MET

INPUT: API: above_or_equal(metric=inhibition at 0.1 µM, cutoff=20%) for item O=C(Nc1ccc(F)c(Cl)c1)Nc1ccc2[nH]c(-c3c4cccccc-4[nH]c3=O)nc2c1
OUTPUT: NOT MET
